Hello, the source for this data is patent EP1669379B1, in case you need it.

- Assay: acute toxicity, single oral administration to mice (LD50)
- Experimental context: both sexes, Balb, mouse, in vivo
- Method: The toxicity level of claimed compounds was assessed according to a general index of acute toxicity - average fatal dose of LD50. The study was held with a single oral administration of the agent to white mice of both sexes, line "Balb", weight 18 - 20 g, and to white rats, line "Vistar", weight 130 - 250 g (female) and 225 - 370 g (male). The medications were administered to mice in the dose range from 250 to 1100 mg/kg, and to rats in the range of 480 - 2315 mg/kg.
Parameter measured: LD50 (mg/kg)
Report only the number, with the unit mg/kg understood.

For record CC12CC3CC(C)(C1)CC(N)(C3)C2 [HC - DMAAM (memantine)] the listed LD50 is 363
